# system: the molecule itself
# protocolSummary: native gel or EMSA; blue native PAGE, uniform 12% polyacrylamide gel with 3.5% stacking gel, 13.5 ug of each protein loaded, Coomassie-stained bands
measuredEndpoint: stoichiometry N
Numbers only.

Report stoichiometry N for every entry below.
1. PaUGP N266D (enzyme, UDP-glucose pyrophosphorylase of Pseudomonas aeruginosa (galU), residues 1-279, point mutant of Strep-PaUGP; Same construct as m1; source: E. coli BL21(DE3), purified (Strep-Tactin Sepharose); not shown: Strep-tagII, N-terminal, kept) MIKKCLFPAAGYGTRFLPATKAMPKEMLPVVNKPLIQYAVEEALEAGLSEIGIVTGRGKRSLEDHFDISYELEHQIRNTDKEKYLVGIRRLIDECTFAYTRQVEMKGLGHAILTGRPLIGDEPFAVVLADDLCLNLEGDSVLKQMVKLYNQFRCSIVAIQEVPPEETNKYGVIAGEMIRDDIFRVNTMVEKPKPEEAPSNLAIIGRYILTPDIFDLIEQTEPGKGGEIQITDALMKQAQDGCVLAYKFKGKRFDCGSAEGYIEATDFCYENLYKTGKAH
2. PaUGP R57A (enzyme, UDP-glucose pyrophosphorylase of Pseudomonas aeruginosa (galU), residues 1-279, point mutant of Strep-PaUGP; Same construct as m1; source: E. coli BL21(DE3), purified (Strep-Tactin Sepharose); not shown: Strep-tagII, N-terminal, kept) MIKKCLFPAAGYGTRFLPATKAMPKEMLPVVNKPLIQYAVEEALEAGLSEIGIVTGAGKRSLEDHFDISYELEHQIRNTDKEKYLVGIRRLIDECTFAYTRQVEMKGLGHAILTGRPLIGDEPFAVVLADDLCLNLEGDSVLKQMVKLYNQFRCSIVAIQEVPPEETNKYGVIAGEMIRDDIFRVNTMVEKPKPEEAPSNLAIIGRYILTPDIFDLIEQTEPGKGGEIQITDALMKQAQDGCVLAYKFKGKRFDCGSAEGYIEATNFCYENLYKTGKAH

a:
4
4

Note to self: stoichiometry N recorded for PaUGP H74F (enzyme, UDP-glucose pyrophosphorylase of Pseudomonas aeruginosa (galU), residues 1-279, point mutant of Strep-PaUGP; Same construct as m1; source: E. coli BL21(DE3), purified (Strep-Tactin Sepharose); not shown: Strep-tagII, N-terminal, kept) MIKKCLFPAAGYGTRFLPATKAMPKEMLPVVNKPLIQYAVEEALEAGLSEIGIVTGRGKRSLEDHFDISYELEFQIRNTDKEKYLVGIRRLIDECTFAYTRQVEMKGLGHAILTGRPLIGDEPFAVVLADDLCLNLEGDSVLKQMVKLYNQFRCSIVAIQEVPPEETNKYGVIAGEMIRDDIFRVNTMVEKPKPEEAPSNLAIIGRYILTPDIFDLIEQTEPGKGGEIQITDALMKQAQDGCVLAYKFKGKRFDCGSAEGYIEATNFCYENLYKTGKAH was 4
